- Substrate: Oc1ccccc1O
- Test: purified protein
- Reported Conditions: 0.1 M PBS pH 7.5, 25 °C, O2 co-substrate (air), Fe enzyme, kcat corrected for iron content
Measured Vmax of individual entries

{"Protein": "TuDOG7 (Tetranychus urticae) (protein) ERSIEILNHDATVIDCARYKREANQHKCVITPFTTEGPYFLPDDYERSDITDGYTGVNLNLTLLLTNAKDCSPLSNYYVHIWNANAMGHYSGVKEFNFFDHPTFRPKPINNLRFLRGYQITNEDGLVNFNTIIPGWYFGRCIHIHVEIYDKNTTDGHAVSYIGQLYFNREMPAALKLIDPYSQNNNELTLNDQDIVFALSRGSDTILELIPEGNGYSASYVLSIDPTVKVENSVLPFEDPRNVSFIEH", "Vmax": "0.42 µM/min"}
{"Protein": "TuDOG16 (Tetranychus urticae) (protein, signal peptide removed, N-terminal 6xHis kept, pJExpress 411, E. coli BL21(DE3), codon optimized (ATUM), 25-37 kDa) HSERPGKFLEHDRSIVNCARYKREANQHTCVLAPFATEGPYFLADDLERSDITDGQTGVNLDLNLKLTNAKDCSPLSGYFVHIWNANALGHYSGVQEFNKFPKQTFRPKPIYDTRWLRGYQVTNEDGEVNFKTIVPGWYYGRCLHIHVEVYSKNTTDTNAITYIGQLYFKRELPVQLKLVEPYSSNQNELKFNEQDKVFNGMHGNDTITELVFEENNAKTSFILALDPTVTTLTNGTVVN", "Vmax": "0.06 µM/min"}
{"Protein": "TuDOG1 (Tetranychus urticae) (protein, signal peptide removed, N-terminal 6xHis kept, pJExpress 411, E. coli BL21(DE3), codon optimized (ATUM), 25-37 kDa) DVHRRGKFLPHDRTVINCASLNRKAHQHSSVLAPFTTEGPFFLPDDLKRSDITDGQKGIPLELTIKLTNAKDCTPISNFFIHAWQTNATGVYSGIDEDTAPLSGFRPTPVNRDRSLRGYQETDANGEVKFLTILPGWYSGRAIHIHIEVYAKDITDENKITYIGQFYFEHDFPLKLRKIYPYSTNTQRIIFNEQDYYYVHDHGDETTLDLKHNGAKFSSYATVAIDPTVTVHVQ", "Vmax": "0.14 µM/min"}
{"Protein": "TuDOG11 (Tetranychus urticae) (protein, signal peptide removed, N-terminal 6xHis kept, pJExpress 411, E. coli BL21(DE3), codon optimized (ATUM), 25-37 kDa) HLQRPGKFLPHDRSIVDCARYKREANQHTCVLAPFTTEGPYFLPDDLERSDITDGQTGVNLDLNLKLTNAKDCSPLSNYFVHVWQANALGHYSGVNELFPVGFRPKPISGERFLRGYQKTNEDGEVNFKTIIPGWYVGRCIHIHVEVYAKNNTDGNAVNYIGQLYFERDIPSSLRLVEPYSTNVNEITLNDSDGVYLLTHGNDTLIDLVPQESGFRTDYIVAIDPDVSIKYDWLDI", "Vmax": "0.56 µM/min"}
{"Protein": "TuDOG15 (Tetranychus urticae) (protein) DHERPGKYLEHDSTVINCARYKREANQHSCVLAPYAVEGPYFLPDDLERSNLAEDKVGVSLDLAIRLVNSNDCTPLTNMFVHVWHADALGVYSGVPDLAELFVERMRQENKTLPPFWGPEGAYEGRRPGGPGGPGGPGGPGGPGDMEMPGRPTPVNNERFLRGYQVTNEAGEVNFKTIIPGWYTGRSLHIHVEVYSKNTTEPGEVNYIGQIFFKDDLPAELKLIEPYSLNQNILVLNPQDGIYNFAHGEQTKIQLENRETGYFGSMTFGINPNAH", "Vmax": "0.09 µM/min"}
